I'd be grateful if you could share measured IC50 for these entries.
targetOfAssay: Adenosine kinase (Homo sapiens, UniProt P55263)
Sequence (P55263 whole entry): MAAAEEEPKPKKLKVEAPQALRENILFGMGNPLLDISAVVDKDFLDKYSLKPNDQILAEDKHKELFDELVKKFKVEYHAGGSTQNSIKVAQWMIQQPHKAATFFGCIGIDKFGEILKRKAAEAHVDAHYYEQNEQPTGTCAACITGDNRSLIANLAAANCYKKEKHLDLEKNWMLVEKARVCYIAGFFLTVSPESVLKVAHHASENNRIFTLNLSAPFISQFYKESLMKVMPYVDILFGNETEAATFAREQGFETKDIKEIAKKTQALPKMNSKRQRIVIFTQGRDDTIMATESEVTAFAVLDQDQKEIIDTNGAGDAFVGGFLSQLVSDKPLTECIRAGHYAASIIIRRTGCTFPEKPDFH
testName: Inhibition of cytosolic adenosine kinase

// solved cases for IC50 follow
| itemSmiles | obsValue |
| --- | --- |
| CN(C)c1ccc(C#Cc2cc(NCc3ccccc3)ncn2)cc1 | > 1 µM |
| Nc1ncnc(C#Cc2ccc(N3CCOCC3)nc2)c1-c1cccs1 | 0.013 µM |
| Nc1ncnc(C#Cc2ccc(N3CCOCC3)nc2)c1-c1cc2ccccc2o1 | 0.001 µM |

Go through the list and state IC50 for each entry.
1. CN(C)c1ccc(C#Cc2ncnc(N)c2-c2cccc(Cl)c2)cc1
2. CN(C)c1ccc(-c2c(N)ncnc2C#Cc2ccc(N3CCOCC3)nc2)cc1
3. CN(C)c1ccc(C#Cc2ncnc(N)c2-c2ccccc2Cl)cc1
4. COCCN(C)c1cc(N2CCOCC2)ncc1C#Cc1ncnc(N)c1-c1ccc2c(c1)OCO2
5. CC(C)NC(=O)Nc1cc(C#Cc2ncnc(N)c2-c2ccc3c(c2)OCO3)cnc1N1CCOCC1
6. Nc1ncnc(C#Cc2ccccn2)c1-c1ccc(Cl)cc1
7. Nc1ncnc(C#Cc2ccc(N3CCOCC3)nc2)c1-c1ccsc1

1. 0.01 µM
2. 0.002 µM
3. 0.075 µM
4. 0.101 µM
5. 0.018 µM
6. 0.5 µM
7. 0.038 µM
